- ASSAYED_TARGET: Cap-dependant Endonuclease (CEN) (RNP fraction, PB1-PB2-PA complex) (Influenza A virus (strain A/Wilson-Smith/1933 H1N1) (Influenza A virus (strain A/WS/1933 H1N1)))
- Format: biochemical, influenza A/WSN/33 virus
- RUN_PARAMETERS: parent compounds (Reference examples); room temperature, 60 minutes
Consider the following molecules and their measured IC50 readings.
VALUE_TYPE: IC50 (nM)

• C[C@@H](N1CN(C2c3ccccc3CCc3cc(F)c(F)cc32)n2ccc(=O)c(O)c2C1=O)C(F)(F)F (stereo partly shown) [Reference example 636] = 74
• C[C@@H](N1CN([C@@H]2c3cccc(F)c3SCc3cccc(Br)c32)n2ccc(=O)c(O)c2C1=O)C(F)(F)F = 5.89
• CCN(CC)CCN1CN(C2c3ccccc3CCc3ccccc32)n2ccc(=O)c(O)c2C1=O [Reference example 490] = 212
• C[C@@H](N1CN([C@H]2c3ccccc3CCc3cccc(F)c32)n2ccc(=O)c(O)c2C1=O)C(F)(F)F [Reference example 633] = 53
• C[C@@H](N1CN([C@@H]2c3cccc(F)c3SCc3cccc(F)c32)n2ccc(=O)c(O)c2C1=O)C(F)(F)F [Reference example 599] = 25
• C[C@@H](N1CN([C@@H]2c3ccc(F)cc3SCc3cccc(Cl)c32)n2ccc(=O)c(O)c2C1=O)C(F)(F)F = 5.22
• C[C@@H](N1CN([C@H]2c3ccccc3SCc3cccc(N(C)C)c32)n2ccc(=O)c(O)c2C1=O)C(F)(F)F = 109

====

- ASSAYED_TARGET: Cap-dependant Endonuclease (CEN) (RNP fraction, PB1-PB2-PA complex) (Influenza A virus (strain A/Wilson-Smith/1933 H1N1) (Influenza A virus (strain A/WS/1933 H1N1)))
- Format: biochemical, influenza A/WSN/33 virus
- RUN_PARAMETERS: parent compounds (Reference examples); room temperature, 60 minutes
pIC50: −log10 of the molar value.
Consider the following compounds and their measured pIC50 readings.
VALUE_TYPE: pIC50

- O=C1c2c(O)c(=O)ccn2N(C2c3ccccc3CSc3ccccc32)CN1C1COC1 (centres unmarked) [Reference example 609]: 7.28
- O=C1c2c(O)c(=O)ccn2N(C2c3ccccc3CSc3ccccc32)CN1Cc1ncns1 (centres unmarked) [Reference example 316]: 7.16
- C[C@@H](N1CN(C2c3cccc(F)c3CCc3c(F)cccc32)n2ccc(=O)c(O)c2C1=O)C(F)(F)F [Reference example 638]: 6.89
- COc1cccc2c1CSc1ccccc1[C@H]2N1CN([C@H](C)C(F)(F)F)C(=O)c2c(O)c(=O)ccn21 [Reference example 600]: 7.23
- COCC[C@@H]1N([C@H](C)C(F)(F)F)C(=O)c2c(O)c(=O)ccn2N1C1c2ccccc2CCc2ccccc21 [Reference example 645]: 6.98

====

- ASSAYED_TARGET: Cap-dependant Endonuclease (CEN) (RNP fraction, PB1-PB2-PA complex) (Influenza A virus (strain A/Wilson-Smith/1933 H1N1) (Influenza A virus (strain A/WS/1933 H1N1)), UniProt P15659)
- Type: biochemical, influenza A/WSN/33 virus
- RUN_PARAMETERS: parent compounds (Reference examples); room temperature, 60 minutes
VALUE_TYPE: IC50 (nM)

- C[C@@H](N1CN([C@H]2c3cc(F)ccc3CSc3c(Cl)cccc32)n2ccc(=O)c(O)c2C1=O)C(F)(F)F [Reference example 658]: 53
- O=C1c2c(O)c(=O)ccn2N([C@@H]2c3ccccc3SCc3cccc(Cl)c32)[C@H]2COCCN12: 19.7
- C[C@@H](N1CN([C@H]2c3ccc(F)cc3CSc3ccccc32)n2cc(B(O)O)c(=O)c(O)c2C1=O)C(F)(F)F: 46.5
- O=C1c2c(O)c(=O)ccn2N(C2c3ccccc3CCc3ccccc32)CN1C1COC1 [Reference example 629]: 89
- C[C@@H](N1CN([C@@H]2c3ccccc3SCc3cccc(C(F)(F)F)c32)n2ccc(=O)c(O)c2C1=O)C(F)(F)F: 21
- C[C@@H](N1CN([C@@H](c2ccccc2)c2ccccc2Cl)n2ccc(=O)c(O)c2C1=O)C(F)(F)F [Reference example 651]: 56
- C[C@@H](N1CN([C@H]2c3cc(F)ccc3CSc3c(F)cccc32)n2ccc(=O)c(O)c2C1=O)C(F)(F)F [Reference example 656]: 70
- C[C@@H](N1CN([C@@H]2c3ccccc3SCc3cccc(Br)c32)n2ccc(=O)c(O)c2C1=O)C(F)(F)F [Reference example 654]: 8
- C[C@@H](N1CN([C@@H]2c3ccc(Cl)cc3SCc3c(F)cccc32)n2ccc(=O)c(O)c2C1=O)C(F)(F)F [Reference example 663]: 31
- COCCCC1N(CC(F)(F)F)C(=O)c2c(O)c(=O)ccn2N1C1c2ccc(F)cc2CCc2cc(F)ccc21 (stereo not drawn) [Reference example 643]: 163
- COCCN1CC(C(c2ccccc2)c2ccccc2)n2cc(C(=O)O)c(=O)c(O)c2C1=O (stereo not drawn): 48
- C[C@@H](N1CN([C@H](c2ccccc2)c2ccccc2Cl)n2ccc(=O)c(O)c2C1=O)C(F)(F)F [Reference example 652]: 330
- C[C@@H](N1CN([C@@H]2c3cccc(Cl)c3SCc3cccc(F)c32)n2ccc(=O)c(O)c2C1=O)C(F)(F)F [Reference example 601]: 25
- C[C@@H](N1CN([C@@H]2c3ccccc3SCc3cccc(Cl)c32)n2cc(Cl)c(=O)c(O)c2C1=O)C(F)(F)F: 31.5
- C[C@@H](N1CN([C@H]2c3ccccc3SCc3cccc(Br)c32)n2ccc(=O)c(O)c2C1=O)C(F)(F)F [Reference example 661]: 135
- C[C@@H](N1CN([C@@H]2c3ccccc3SCc3cccc(N(C)C)c32)n2ccc(=O)c(O)c2C1=O)C(F)(F)F: 14.2
- Cc1cn2c(c(O)c1=O)C(=O)N([C@H](C)C(F)(F)F)CN2[C@@H]1c2ccccc2SCc2c1ccc(F)c2F: 11.1
- COc1cccc2c1[C@H](N1CN([C@H](C)C(F)(F)F)C(=O)c3c(O)c(=O)ccn31)c1ccccc1SC2: 74.7
- C#Cc1cccc2c1[C@H](N1CN([C@H](C)C(F)(F)F)C(=O)c3c(O)c(=O)ccn31)c1cccc(F)c1SC2: 3.74
- C[C@@H](N1CN(C(c2ccccc2)c2ccc(Cl)cc2)n2ccc(=O)c(O)c2C1=O)C(F)(F)F (stereo partly drawn) [Reference example 650]: 219
- C[C@@H](N1CN([C@@H]2c3ccccc3SCc3c(Cl)cccc32)n2cc(CO)c(=O)c(O)c2C1=O)C(F)(F)F: 2.6
- Cc1cccc2c1CCc1c(C)cccc1C2N1CN([C@H](C)C(F)(F)F)C(=O)c2c(O)c(=O)ccn21 [Reference example 632]: 132
- C[C@@H](N1CN(C(c2ccccc2Cl)c2ccccc2Cl)n2ccc(=O)c(O)c2C1=O)C(F)(F)F [Reference example 648]: 132
- Cc1cccc2c1CCc1ccccc1C2N1CN([C@H](C)C(F)(F)F)C(=O)c2c(O)c(=O)ccn21 (stereo partly drawn) [Reference example 631]: 75
- C[C@@H](N1CN([C@H]2c3ccc(F)cc3CSc3c(Cl)cccc32)n2ccc(=O)c(O)c2C1=O)C(F)(F)F [Reference example 602]: 5
- N#CCN1CN(C(c2ccccc2)c2ccccc2)n2ccc(=O)c(O)c2C1=O [Reference example 574]: 165
- CC(=O)c1cn2c(c(O)c1=O)C(=O)N([C@H](C)C(F)(F)F)CN2[C@@H]1c2ccccc2SCc2c1ccc(F)c2F: 18.6
